Target: T1, VEGFR-1-Fc (UniProt P17948 27-338)
T1 construct: domain: first three Ig domains; expressed in Drosophila S2 cells, purified on Protein A sepharose; also called VEGFR-1-Fc fusion protein; not shown: Fc fragment from the Signal-pIgPlus vector
T1 sequence (P17948 27-338): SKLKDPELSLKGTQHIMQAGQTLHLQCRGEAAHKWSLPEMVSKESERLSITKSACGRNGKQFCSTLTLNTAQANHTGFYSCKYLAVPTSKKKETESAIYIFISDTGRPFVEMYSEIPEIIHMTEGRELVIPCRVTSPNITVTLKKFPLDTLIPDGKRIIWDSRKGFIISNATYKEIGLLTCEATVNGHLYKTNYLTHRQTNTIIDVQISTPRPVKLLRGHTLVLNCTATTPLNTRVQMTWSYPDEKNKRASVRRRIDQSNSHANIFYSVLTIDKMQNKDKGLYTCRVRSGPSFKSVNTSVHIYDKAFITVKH
Assay: receptor-Fc IP
Source text: The binding assay procedure was identical to the immunoprecipitation using pentahistidine antibody described in Example 2, apart from the composition of the immunoprecipitation (IP) mixes. […]
quantity-name: binding result

{"binder": "64-12 (ligand) GQNHHEVVKFMDVYQRSYCHPREVCIDVGKEFGVATNTFFKPSCVPLMRCGGCCNSEGLQCMNTSTSYLSKTLFEITVPLSQGPKPVTISFLQHNKCECRPKKD", "binding result": "no binding"}
{"binder": "62-10 (ligand) GQNHHEVVKFMDVYQRSYCHPREVCIDVGKEFGVATNTFFKPPCVSVYRCGGCCNDEGLECMNTSTSYLSKTLFEITVPLSQGPKPVTISFLQHNKCECRPKKD", "binding result": "no binding"}
{"binder": "21-10 (ligand) AHYNTEILKSIDNEWRKTQCMPREVCIDVGKEYPDEIEYIFKPSCVPLMRCGGCCNDEGLECMNTSTSYLSKTLFEITVPLSQGPKPVTISFLQHNKCECRPKKD", "binding result": "no binding"}
{"binder": "61-16 (ligand) GQNHHEVVKFMDVYQRSYCHPREVCIDVGKEYPDEIEYIFKPSCVPLMRCGGCCNSEGLQCMNTSTSYLSKTLFEITVPLSQGPKPVTISFANHTSCRCMSKLD", "binding result": "no binding"}
{"binder": "81-11 (ligand) AHYNTEILKFMDVYQRSYCHPIETLVDIFQEYPDEIEYIFKPSCVPLMRCGGCCNSEGLQCVPTEESNITMQIMRITVPLSQGPKPVTISFLQHNKCECRPKKD", "binding result": "binds"}
{"binder": "34-11 (ligand) GQNHHEVVKSIDNEWRKTQCMPIETLVDIFQEFGVATNTFFKPSCVPLMRCGGCCNSEGLQCVPTEESNITMQIMRITVPLSQGPKPVTISFLQHNKCECRPKKD", "binding result": "no binding"}
{"binder": "73-10 (ligand) GQNHHEVVKSIDNEWRKTQCMPREVCIDVGKEYPDEIEYIFKPPCVSVYRCGGCCNDEGLECMNTSTSYLSKTLFEITVPLSQGPKPVTISFLQHNKCECRPKKD", "binding result": "no binding"}
{"binder": "52-3 (ligand) AHYNTEILKSIDNEWRKTQCMPIETLVDIFQEFGVATNTFFKPPCVSVYRCGGCCNSEGLQCVPTEESNITMQIMRIKPHQGQHIGEMSFLQHNKCECRPKKD", "binding result": "no binding"}
{"binder": "42-12 (ligand) AHYNTEILKFMDVYQRSYCHPREVCIDVGKEFGVATNTFFKPPCVSVYRCGGCCNSEGLQCMNTSTSYLSKTLFEITVPLSQGPKPVTISFLQHNKCECRPKKD", "binding result": "no binding"}
{"binder": "81-1 (ligand) AHYNTEILKFMDVYQRSYCHPIETLVDIFQEYPDEIEYIFKPSCVPLMRCGGCCNDEGLECVPTEESNITMQIMRIKPHQGQHIGEMSFLQHNKCECRPKKD", "binding result": "binds"}

// query Which binding result value belongs to 42-8 (ligand) AHYNTEILKFMDVYQRSYCHPREVCIDVGKEFGVATNTFFKPPCVSVYRCGGCCNSEGLQCMNTSTSYLSKTLFEIKPHQGQHIGEMSFANHTSCRCMSKLD ?
// result no binding

// query Field request: binding result | item: 42-6 (ligand) AHYNTEILKFMDVYQRSYCHPREVCIDVGKEFGVATNTFFKPPCVSVYRCGGCCNDEGLECMNTSTSYLSKTLFEIKPHQGQHIGEMSFANHTSCRCMSKLD
// result no binding

// query I have this binder here, 32-8 (ligand) GQNHHEVVKSIDNEWRKTQCMPIETLVDIFQEFGVATNTFFKPPCVSVYRCGGCCNSEGLQCMNTSTSYLSKTLFEIKPHQGQHIGEMSFANHTSCRCMSKLD , and I need its recorded binding result.
// result no binding

// query # query: binding result of entry 23-16 (ligand) AHYNTEILKSIDNEWRKTQCMPREVCIDVGKEYPDEIEYIFKPPCVSVYRCGGCCNSEGLQCMNTSTSYLSKTLFEITVPLSQGPKPVTISFANHTSCRCMSKLD
// result no binding

// query Which binding result reading was recorded for the binder 24-1 (ligand) AHYNTEILKSIDNEWRKTQCMPREVCIDVGKEFGVATNTFFKPSCVPLMRCGGCCNDEGLECVPTEESNITMQIMRIKPHQGQHIGEMSFLQHNKCECRPKKD ?
// result no binding

// query What does the record list as binding result for 13-15 (ligand) GQNHHEVVKFMDVYQRSYCHPIETLVDIFQEYPDEIEYIFKPPCVSVYRCGGCCNSEGLQCVPTEESNITMQIMRITVPLSQGPKPVTISFANHTSCRCMSKLD ?
// result binds
